Target system: UniProt:Q9H3Y6
Sequence (Q9H3Y6 whole entry, looked up): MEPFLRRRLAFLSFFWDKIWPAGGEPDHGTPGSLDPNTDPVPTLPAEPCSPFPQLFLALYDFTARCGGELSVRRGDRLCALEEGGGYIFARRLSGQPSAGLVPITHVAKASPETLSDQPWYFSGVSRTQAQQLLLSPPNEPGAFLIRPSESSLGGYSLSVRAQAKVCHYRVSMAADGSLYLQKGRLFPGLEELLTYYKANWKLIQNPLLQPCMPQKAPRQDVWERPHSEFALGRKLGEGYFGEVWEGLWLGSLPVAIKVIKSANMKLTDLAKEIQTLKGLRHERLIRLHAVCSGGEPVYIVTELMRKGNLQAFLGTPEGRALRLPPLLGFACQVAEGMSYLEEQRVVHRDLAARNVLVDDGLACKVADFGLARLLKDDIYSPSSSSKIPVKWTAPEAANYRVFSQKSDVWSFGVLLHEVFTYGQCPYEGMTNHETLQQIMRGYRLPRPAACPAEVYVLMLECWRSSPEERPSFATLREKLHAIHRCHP
Experiment summary: KINOMEscan competition binding
Details: compound 10.0 µM
# note: boundary value 60% maps to false; kinase still bound, per cent of control below it maps to true

IN: Lab note: confirm whether the reported kinase still bound, per cent of control for this compound is below 60%, equality not counting. compound: CNC(=O)Nc1ccc(-c2nc(N3CC4CCC(C3)O4)c3cnn(C4CCC5(CC4)OCCO5)c3n2)cc1
OUT: false

***
IN: Lab note: confirm whether the reported kinase still bound, per cent of control for this compound is below 60%, equality not counting. compound: COc1cc(C)c(Sc2cnc(NC(=O)c3ccc(CNC(C)C(C)C)cc3)s2)cc1C(=O)N1CCN(C(C)=O)CC1 (configuration not stated)
OUT: false

IN: Again, but for CCOc1cc(N2CCC(O)CC2)ccc1Nc1ncc2c(n1)N(C)c1ccccc1C(=O)N2C
OUT: false

IN: Again, but for N#C/C(=C1/Nc2ccccc2S1)c1ccnc(NCCc2cccnc2)n1
OUT: true

IN: Again, but for O=c1[nH]c2ccccc2n1C1CCN(Cc2ccc(-c3nc4cc5[nH]cnc5cc4nc3-c3ccccc3)cc2)CC1
OUT: false

IN: Again, but for COc1ccc(N(C(=O)Oc2cc(C(=O)Nc3cccc(C(F)(F)F)c3)ccc2C)c2ccnc(Nc3ccc(N4CCN(C)CC4)cc3)n2)c(OC)c1
OUT: true

IN: Again, but for COc1cc(N2CCC(C(N)=O)CC2)ccc1Nc1nc(N)c(Cl)c(Nc2ccccc2S(=O)(=O)C(C)C)n1
OUT: true

IN: Again, but for CCN(CCO)CCCOc1ccc2c(Nc3cc(CC(=O)Nc4cccc(F)c4)[nH]n3)ncnc2c1
OUT: true

IN: Again, but for C=CC(=O)Nc1ccc(C(=O)c2sc(Nc3ccc(N4CCN(C)CC4)cc3OC)nc2N)cc1
OUT: false

IN: Again, but for CC1=C(C(=O)Nc2cc3cn[nH]c3cc2F)C(c2ccc(C(F)(F)F)cc2)CC(=O)N1 (configuration not stated)
OUT: true

IN: Again, but for COc1cc2c(Nc3ccc(NC(=O)c4ccccc4)cc3)ncnc2cc1OCCCN1CCOCC1
OUT: true

IN: Again, but for CCc1nc(-c2cccc(C)c2)c(-c2ccnc(NC(=O)c3ccccc3)c2)s1
OUT: false

* * *

Target system: TSSK1B (human)
Experiment summary: KINOMEscan competition binding
Details: compound 10.0 µM
Readout: kinase still bound, per cent of control (%)
Lab book: enter the figure in %, no units written.

# annotated cases, reported kinase still bound, per cent of control shown
IN: So what does the record say about kinase still bound, per cent of control for COc1cc(N2CCC(C(N)=O)CC2)ccc1Nc1nc(N)c(Cl)c(Nc2ccccc2S(=O)(=O)C(C)C)n1 ?
OUT: 100

IN: Again, but for COc1cc2ncnc(Nc3cccc(Cl)c3)c2cc1OC
OUT: 100

IN: Again, but for CC(=O)c1c(C)c2cnc(Nc3ccc(N4CCNCC4)cn3)nc2n(C2CCCC2)c1=O
OUT: 8

***
IN: So what does the record say about kinase still bound, per cent of control for COc1cc2c(Nc3ccc(NC(=O)c4ccccc4)cc3)ncnc2cc1OCCCN1CCOCC1 ?
OUT: 100

IN: Again, but for O=c1[nH]c2ccccc2n1C1CCN(Cc2ccc(-c3nc4cc5[nH]cnc5cc4nc3-c3ccccc3)cc2)CC1
OUT: 82

IN: Again, but for CCCS(=O)(=O)Nc1ccc(F)c(C(=O)c2c[nH]c3ncc(Cl)cc23)c1F
OUT: 83

* * *

Target system: EPHB2 (human)
Experiment summary: KINOMEscan competition binding
Details: compound 10.0 µM
# note: boundary value 80% maps to criterion not met; kinase still bound, per cent of control below it maps to criterion met

IN: Lab note: confirm whether the reported kinase still bound, per cent of control for this molecule is below 80%, equality not counting. molecule: COc1cc(N2CCC(C(N)=O)CC2)ccc1Nc1nc(N)c(Cl)c(Nc2ccccc2S(=O)(=O)C(C)C)n1
OUT: criterion not met

IN: Again, but for N#C/C(=C1/Nc2ccccc2S1)c1ccnc(NCCc2cccnc2)n1
OUT: criterion not met

IN: Again, but for N#Cc1cc(-c2ccnc(Nc3ccc(-n4cnc(-c5cccnc5)n4)cc3)n2)cc(N2CCOCC2)c1
OUT: criterion not met

***
IN: Lab note: confirm whether the reported kinase still bound, per cent of control for this molecule is below 80%, equality not counting. molecule: COc1cc2ncnc(Nc3cccc(Cl)c3)c2cc1OC
OUT: criterion met

* * *

Target system: MAP3K11 (human)
Experiment summary: KINOMEscan competition binding
Details: compound 10.0 µM
# note: boundary value 90% maps to no (0); kinase still bound, per cent of control below it maps to yes (1)

As a guide, the following entries are already answered.
IN: Lab note: confirm whether the reported kinase still bound, per cent of control for this molecule is below 90%, equality not counting. molecule: N#Cc1cc(-c2ccnc(Nc3ccc(-n4cnc(-c5cccnc5)n4)cc3)n2)cc(N2CCOCC2)c1
OUT: yes (1)

IN: Again, but for CCN1CCN(Cc2ccc(NC(=O)c3ccc(C)c(/C=C/c4cnc5[nH]ccc5c4OC)c3)cc2C(F)(F)F)CC1
OUT: yes (1)

IN: Again, but for CCN(CCO)CCCOc1ccc2c(Nc3cc(CC(=O)Nc4cccc(F)c4)[nH]n3)ncnc2c1
OUT: no (0)

IN: Again, but for CCOc1cc(N2CCC(O)CC2)ccc1Nc1ncc2c(n1)N(C)c1ccccc1C(=O)N2C
OUT: no (0)

IN: Again, but for CCc1nc(-c2cccc(C)c2)c(-c2ccnc(NC(=O)c3ccccc3)c2)s1
OUT: yes (1)

IN: Again, but for O=c1[nH]c2ccccc2n1C1CCN(Cc2ccc(-c3nc4cc5[nH]cnc5cc4nc3-c3ccccc3)cc2)CC1
OUT: no (0)

IN: Again, but for COc1cc2ncnc(Nc3cccc(Cl)c3)c2cc1OC
OUT: no (0)

IN: Again, but for CC1=C(C(=O)Nc2cc3cn[nH]c3cc2F)C(c2ccc(C(F)(F)F)cc2)CC(=O)N1 (stereo not drawn)
OUT: no (0)

IN: Again, but for COc1cc(N2CCC(C(N)=O)CC2)ccc1Nc1nc(N)c(Cl)c(Nc2ccccc2S(=O)(=O)C(C)C)n1
OUT: no (0)

IN: Again, but for COc1cc2c(Nc3ccc(NC(=O)c4ccccc4)cc3)ncnc2cc1OCCCN1CCOCC1
OUT: yes (1)

***
IN: Lab note: confirm whether the reported kinase still bound, per cent of control for this molecule is below 90%, equality not counting. molecule: CNC(=O)Nc1ccc(-c2nc(N3CC4CCC(C3)O4)c3cnn(C4CCC5(CC4)OCCO5)c3n2)cc1
OUT: no (0)

IN: Again, but for N#C/C(=C1/Nc2ccccc2S1)c1ccnc(NCCc2cccnc2)n1
OUT: no (0)

* * *

Each entry below lists one item and its recorded kinase still bound, per cent of control value.
Target system: RIPK2 (human) (UniProt O43353)
Sequence (O43353 whole entry, looked up): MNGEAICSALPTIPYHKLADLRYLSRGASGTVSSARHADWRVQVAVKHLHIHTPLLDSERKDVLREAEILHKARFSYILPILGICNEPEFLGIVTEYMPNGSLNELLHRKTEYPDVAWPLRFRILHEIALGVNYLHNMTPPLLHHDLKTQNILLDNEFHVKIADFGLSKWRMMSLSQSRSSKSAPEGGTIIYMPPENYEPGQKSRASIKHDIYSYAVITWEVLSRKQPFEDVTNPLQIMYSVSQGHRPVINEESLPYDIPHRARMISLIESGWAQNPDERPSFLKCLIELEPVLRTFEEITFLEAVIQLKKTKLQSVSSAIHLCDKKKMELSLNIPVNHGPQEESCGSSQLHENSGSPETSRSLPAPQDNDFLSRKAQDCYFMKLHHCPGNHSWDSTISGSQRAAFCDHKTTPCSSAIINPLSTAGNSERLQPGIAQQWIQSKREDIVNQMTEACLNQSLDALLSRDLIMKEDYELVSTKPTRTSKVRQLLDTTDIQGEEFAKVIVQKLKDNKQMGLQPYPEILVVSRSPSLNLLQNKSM
Experiment summary: KINOMEscan competition binding
Details: compound 10.0 µM
Lab book: enter the figure in %, no units written.

# annotated cases, reported kinase still bound, per cent of control shown
IN: So what does the record say about kinase still bound, per cent of control for N#C/C(=C1/Nc2ccccc2S1)c1ccnc(NCCc2cccnc2)n1 ?
OUT: 81

IN: Again, but for CCCS(=O)(=O)Nc1ccc(F)c(C(=O)c2c[nH]c3ncc(Cl)cc23)c1F
OUT: 8.3

Query compound follows.
IN: So what does the record say about kinase still bound, per cent of control for Cc1cn(-c2cc(C(=O)Nc3ccc(C)c(NC(=O)c4ccno4)c3)cc(C(F)(F)F)c2)cn1 ?
OUT: 100

* * *

Target system: NTRK3 (human)
Experiment summary: KINOMEscan competition binding
Details: compound 10.0 µM
Each entry below lists one item and its recorded kinase still bound, per cent of control value.
Lab book: enter the figure in %, no units written.

# annotated cases, reported kinase still bound, per cent of control shown
IN: So what does the record say about kinase still bound, per cent of control for COc1cc2c(Nc3ccc(NC(=O)c4ccccc4)cc3)ncnc2cc1OCCCN1CCOCC1 ?
OUT: 98

IN: Again, but for C=CC(=O)Nc1ccc(C(=O)c2sc(Nc3ccc(N4CCN(C)CC4)cc3OC)nc2N)cc1
OUT: 93

***
IN: So what does the record say about kinase still bound, per cent of control for CCc1nc(-c2cccc(C)c2)c(-c2ccnc(NC(=O)c3ccccc3)c2)s1 ?
OUT: 96

IN: Again, but for COc1cc(N2CCC(C(N)=O)CC2)ccc1Nc1nc(N)c(Cl)c(Nc2ccccc2S(=O)(=O)C(C)C)n1
OUT: 100

IN: Again, but for CNC(=O)Nc1ccc(-c2nc(N3CC4CCC(C3)O4)c3cnn(C4CCC5(CC4)OCCO5)c3n2)cc1
OUT: 93

* * *

Target system: NEK2 (human)
Experiment summary: KINOMEscan competition binding
Details: compound 10.0 µM
Each entry below lists one item and its recorded kinase still bound, per cent of control value.
Lab book: enter the figure in %, no units written.

# annotated cases, reported kinase still bound, per cent of control shown
IN: So what does the record say about kinase still bound, per cent of control for CCOc1cc(N2CCC(O)CC2)ccc1Nc1ncc2c(n1)N(C)c1ccccc1C(=O)N2C ?
OUT: 100

IN: Again, but for CCCS(=O)(=O)Nc1ccc(F)c(C(=O)c2c[nH]c3ncc(Cl)cc23)c1F
OUT: 49

Query compound follows.
IN: So what does the record say about kinase still bound, per cent of control for C=CC(=O)Nc1ccc(C(=O)c2sc(Nc3ccc(N4CCN(C)CC4)cc3OC)nc2N)cc1 ?
OUT: 100
